Where do the numbers come from? From ChEMBL document CHEMBL5113500.

test: Clearance in ICR mouse at 10 mg/kg, iv; type: ADME, organism-based; conditions: in vivo
QUANTITY_MEASURED: clearance (mL/min/kg)
Quick note: give the figure in mL/min/kg, leave out the unit.

Fill blank: measured clearance of the compound C[C@H]1CCC/C=C/[C@@H]2C[C@H](O)C[C@H]2[C@H](OC(=O)/C=C/c2ccc(N(C)C)cc2)/C=C/C(=O)O1 is ____.
42.5

---

assay: Terminal half life in ICR mouse at 10 mg/kg, iv; type: ADME, organism-based; conditions: in vivo, read-out: beta t1/2 (converted)
QUANTITY_MEASURED: half-life (h)
Quick note: give the figure in h, leave out the unit.

Fill blank: measured half-life of the compound C[C@H]1CCC/C=C/[C@@H]2C[C@H](O)C[C@H]2[C@H](OC(=O)/C=C/c2ccc(N(C)C)cc2)/C=C/C(=O)O1 is ____.
2.08

---

Below is a list of entries, each paired with its recorded IC50 at 72 h value.
assay: Cytotoxicity against human L02 cells measured after 72 hrs by MTT assay; type: toxicity, cell-based
Quick note: give the figure in nM, leave out the unit.

RECORD_SMILES: C[C@H]1CCC/C=C/[C@@H]2C[C@H](O)C[C@H]2[C@H](O)/C=C/C(=O)O1
IC50 at 72 h / nM: 100

Fill blank: measured IC50 at 72 h of the compound C[C@H]1CCC/C=C/[C@@H]2C[C@H](O)C[C@H]2[C@H](OC(=O)/C=C/c2ccc(N(C)C)cc2)/C=C/C(=O)O1 is ____.
2810

---

test: Selectivity index, ratio of IC50 for human L02 cells to IC50 for human HepG2 cells; assay type: toxicity; conditions: L02 cells and HepG2 cells, read-out: Ratio IC50
Below is a list of entries, each paired with its recorded selectivity ratio value.

COMPOUND: C[C@H]1CCC/C=C/[C@@H]2C[C@H](O)C[C@H]2[C@H](O)/C=C/C(=O)O1 [BREFELDIN A]
selectivity ratio: 0.56

Proceed to the following item.
Fill blank: measured selectivity ratio of the compound C[C@H]1CCC/C=C/[C@@H]2C[C@H](O)C[C@H]2[C@H](OC(=O)/C=C/c2ccc(N(C)C)cc2)/C=C/C(=O)O1 is ____.
9.69

---

Below is a list of entries, each paired with its recorded log10 IC50 value.
test system: ECa-109 cell line; assay: Antiproliferative activity against human Eca-109 cells measured after 72 hrs by MTT assay; format: functional, cell-based; conditions: ECa-109, 72 h
Hey, these are logged values: log10 of IC50, nM being the unit before logging.

Fill blank: measured log10 IC50 of the compound Cc1ccc(/C=C/C(=O)O[C@@H]2C[C@H]3[C@H](O)/C=C/C(=O)O[C@@H](C)CCC/C=C/[C@@H]3C2)cc1 is ____.
4.10

Fill blank: measured log10 IC50 of the compound Cc1cccc(/C=C/C(=O)O[C@@H]2/C=C/C(=O)O[C@@H](C)CCC/C=C/[C@@H]3C[C@H](O)C[C@H]32)c1 is ____.
3.04

Fill blank: measured log10 IC50 of the compound C[C@H]1CCC/C=C/[C@@H]2C[C@H](OC(=O)/C=C/c3ccccc3)C[C@H]2[C@H](O)/C=C/C(=O)O1 is ____.
3.08

Fill blank: measured log10 IC50 of the compound C[C@H]1CCC/C=C/[C@@H]2C[C@H](O)C[C@H]2[C@H](OC(=O)/C=C/c2cccc(Cl)c2)/C=C/C(=O)O1 is ____.
2.87

Fill blank: measured log10 IC50 of the compound C[C@H]1CCC/C=C/[C@@H]2C[C@H](O)C[C@H]2[C@H](OC(=O)/C=C/c2ccccc2F)/C=C/C(=O)O1 is ____.
3.22

Fill blank: measured log10 IC50 of the compound COc1cc(/C=C/C(=O)O[C@@H]2/C=C/C(=O)O[C@@H](C)CCC/C=C/[C@@H]3C[C@H](O)C[C@H]32)cc(OC)c1OC is ____.
3.32

Fill blank: measured log10 IC50 of the compound C[C@H]1CCC/C=C/[C@@H]2C[C@H](OC(=O)/C=C/c3ccc(F)cc3)C[C@H]2[C@H](O)/C=C/C(=O)O1 is ____.
3.46

Fill blank: measured log10 IC50 of the compound C[C@H]1CCC/C=C/[C@@H]2C[C@H](O)C[C@H]2[C@H](O)/C=C/C(=O)O1 is ____.
2.15

Fill blank: measured log10 IC50 of the compound C[C@H]1CCC/C=C/[C@@H]2C[C@H](O)C[C@H]2[C@H](OC(=O)/C=C/c2ccccc2)/C=C/C(=O)O1 is ____.
3.05

Fill blank: measured log10 IC50 of the compound Cc1ccccc1/C=C/C(=O)O[C@@H]1/C=C/C(=O)O[C@@H](C)CCC/C=C/[C@@H]2C[C@H](O)C[C@H]21 is ____.
3.43

Fill blank: measured log10 IC50 of the compound C[C@H]1CCC/C=C/[C@@H]2C[C@H](OC(=O)/C=C/c3cccc(Cl)c3)C[C@H]2[C@H](O)/C=C/C(=O)O1 is ____.
3.16

Fill blank: measured log10 IC50 of the compound C[C@H]1CCC/C=C/[C@@H]2C[C@H](OC(=O)/C=C/c3ccc(C(F)(F)F)cc3)C[C@H]2[C@H](O)/C=C/C(=O)O1 is ____.
2.74

Fill blank: measured log10 IC50 of the compound C[C@H]1CCC/C=C/[C@@H]2C[C@H](O)C[C@H]2[C@H](OC(=O)/C=C/c2ccc(F)cc2)/C=C/C(=O)O1 is ____.
3.06

Fill blank: measured log10 IC50 of the compound C[C@H]1CCC/C=C/[C@@H]2C[C@H](O)C[C@H]2[C@H](OC(=O)/C=C/c2ccccc2Br)/C=C/C(=O)O1 is ____.
3.06

Fill blank: measured log10 IC50 of the compound C[C@H]1CCC/C=C/[C@@H]2C[C@H](O)C[C@H]2[C@H](OC(=O)/C=C/c2ccc(C(F)(F)F)cc2)/C=C/C(=O)O1 is ____.
2.78

Fill blank: measured log10 IC50 of the compound C[C@H]1CCC/C=C/[C@@H]2C[C@H](O)C[C@H]2[C@H](OC(=O)/C=C/c2ccc3c(c2)OCO3)/C=C/C(=O)O1 is ____.
3.34

---

Below is a list of entries, each paired with its recorded IC50 value.
system: ECa-109 cell line; test: Antiproliferative activity against human Eca-109 cells measured after 72 hrs by MTT assay; format: functional, cell-based; conditions: ECa-109, 72 h

RECORD_SMILES: C[C@H]1CCC/C=C/[C@@H]2C[C@H](OC(=O)/C=C/c3ccccc3Br)C[C@H]2[C@H](O)/C=C/C(=O)O1
OBSERVED_VALUE: 500 nM
//
RECORD_SMILES: C[C@H]1CCC/C=C/[C@@H]2C[C@H](O)C[C@H]2[C@H](OC(=O)/C=C/c2ccc(N(C)C)cc2)/C=C/C(=O)O1
OBSERVED_VALUE: 1770 nM
//
RECORD_SMILES: C[C@H]1CCC/C=C/[C@@H]2C[C@H](OC(=O)/C=C/c3cccc(F)c3)C[C@H]2[C@H](O)/C=C/C(=O)O1
OBSERVED_VALUE: 2140 nM
//
RECORD_SMILES: C[C@H]1CCC/C=C/[C@@H]2C[C@H](OC(=O)/C=C/c3ccccc3F)C[C@H]2[C@H](O)/C=C/C(=O)O1
OBSERVED_VALUE: 2420 nM
//
RECORD_SMILES: Cc1cccc(/C=C/C(=O)O[C@@H]2C[C@H]3[C@H](O)/C=C/C(=O)O[C@@H](C)CCC/C=C/[C@@H]3C2)c1
OBSERVED_VALUE: 2100 nM
//
RECORD_SMILES: C[C@H]1CCC/C=C/[C@@H]2C[C@H](O)C[C@H]2[C@H](OC(=O)/C=C/c2cccc(F)c2)/C=C/C(=O)O1
OBSERVED_VALUE: 950 nM

Proceed to the following item.
Fill blank: measured IC50 of the compound Cc1ccc(/C=C/C(=O)O[C@@H]2/C=C/C(=O)O[C@@H](C)CCC/C=C/[C@@H]3C[C@H](O)C[C@H]32)cc1 is ____.
3590 nM
